System: OVCAR-4 ovarian
Experiment: NCI-60 one-dose screen, 48 h (100 = growth as untreated, 0 = no growth, -100 = all killed)
Settings: 10 µM unless noted
This is part of a sample that, as a whole, favours compounds with a hit. Of some 83,000 tested, about 20% had one in any assay.
Given measured growth, output 1 (yes) if it is greater than or equal to 80% and 0 (no) if not.

Some solved cases for reference:
Textbook exercise: given the entry O=C(CCOCCNC(=O)COc1ccc2c(c1)OCC(c1ccc(F)cc1)C2=O)NCCCC(O)(P(=O)(O)O)P(=O)(O)O (stereo not given) , state whether its growth is greater than or equal to 80%.
1 (yes)

Has `COc1ccn2c(C(C)=O)cc(C(=O)c3ccc4c(c3)Sc3ccccc3N4)c2c1` a recorded growth greater than or equal to 80%?
0 (no)

I'd appreciate it if you could say whether `CCOC(=O)Nc1ccc(-c2nc(-c3cccc(OCCN4CCOCC4)c3)c(-c3ccnc(Br)c3)[nH]2)cc1` has growth at least equal to 80%.
0 (no)

Record COc1c(C2CC(=O)Nc3c2c(C)nn3-c2nc3ccccc3[nH]2)cc2c(c1OC)OCO2 (stereo not given) ; criterion: growth no lower than 80%. Met?
1 (yes)

Could you tell me if the measured growth of `CCCCNc1nc(NN2C(=O)c3cccc4cccc(c34)C2=O)nc(-n2cnc3ccccc32)n1` reaches 80% or more?
0 (no)

// inclusive: growth at least 80%? input: `COc1ccc(CN2c3ccccc3CCc3ccccc32)cc1F`
0 (no)

More entries:
Threshold query (growth >= 80%) on `NCCNc1nc2ccccc2c2c(=O)c3cccc(F)c3sc12`
0 (no)

Item `Cc1cc(=O)oc2cc(OC(=O)N3CCN(C)CC3)ccc12` with growth of 80% or above?
1 (yes)

Evaluate `COc1ccc(-c2nnc(COc3ccc(Cl)cc3Cl)o2)cc1OC` : growth at minimum 80%?
0 (no)
